target: acetylcholine receptor; assay: SPR, receptor on CM5 chip, peptide 10 µM
reported.metric: Binding affinity (RU)

KRLFSK [6mer-1-474]
121
KKWIQR [6mer-1-126]
148
RRRYSR [6mer-1-120]
124
RRWRLK [6mer-1-92]
153
RRRQSK [6mer-1-129]
121
KRWRCK [6mer-1-481]
133
RKWLRK [6mer-1-509]
128
RRQITK [6mer-1-114]
153
KKQVYK [6mer-1-87]
139
RKGFQR [6mer-1-495]
126
KKWRQK [6mer-1-86]
142
KKGIYR [6mer-1-527]
142
KKWQTK [6mer-1-95]
142
KRGQLK [6mer-1-106]
149
KKVLYR [6mer-1-82]
123
KKGRQK [6mer-1-524]
148
KKSQLR [6mer-1-532]
121
KKVLSK [6mer-1-473]
154
KKGISK [6mer-1-90]
125
KKWYSK [6mer-1-488]
135
RKQVLR [6mer-1-130]
142
RRRLSK [6mer-1-506]
151
KKRVSK [6mer-1-78]
145
RKVVYR [6mer-1-99]
136
KKRLCR [6mer-1-534]
126
RKLQLR [6mer-1-118]
127
RKVQLK [6mer-1-72]
139
KKQRSR [6mer-1-107]
131
RKWICK [6mer-1-512]
154
KKWVCR [6mer-1-112]
148
KKWVYR [6mer-1-470]
148
KRRQSR [6mer-1-510]
122
RKVQQK [6mer-1-94]
142
